B1: Gamma-crystallin C, residues 4 to 79; numbered along this chain, P07315 (parent)
chain: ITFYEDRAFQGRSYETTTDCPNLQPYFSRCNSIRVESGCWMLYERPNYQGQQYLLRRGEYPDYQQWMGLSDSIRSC

# Variants of: B1
# test summary: abundance fitness (aPCA) (normalised: wild type 0, dead -1); higher = more abundant; growth selection in yeast, the domain comes from the species named
# particulars: Homo sapiens
// reported abundance fitness per item
Give the figure by itself; no unit, no explanation.

A selection of reference data follows.
Qu. Return abundance fitness for the following variant: `S37Q`
Ans. -0.124

Qu. Return abundance fitness for the following variant: `A8N`
Ans. 0.181

Qu. Return abundance fitness for the following variant: `L54K`
Ans. 0.057

Continuing:
Qu. Return abundance fitness for the following variant: `P25Y`
Ans. -0.257

Qu. Return abundance fitness for the following variant: `C30Y`
Ans. -0.472

Qu. Return abundance fitness for the following variant: `S70P`
Ans. 0.082

Qu. Return abundance fitness for the following variant: `D19V`
Ans. -0.101

Qu. Return abundance fitness for the following variant: `Y14K`
Ans. -0.163

Qu. Return abundance fitness for the following variant: `C30W`
Ans. -0.58

Qu. Return abundance fitness for the following variant: `Q51V`
Ans. -0.016

Qu. Return abundance fitness for the following variant: `Y14F`
Ans. 0.114
